Cited source: patent US20220332795A1

molecular target: T1, CD71 apical domain (UniProt P02786 189-383, limits assumed); assay: solution ELISA, signal ratio to HSA
T1 construct: domain: Apical domain
T1 sequence (P02786 189-383 limits assumed): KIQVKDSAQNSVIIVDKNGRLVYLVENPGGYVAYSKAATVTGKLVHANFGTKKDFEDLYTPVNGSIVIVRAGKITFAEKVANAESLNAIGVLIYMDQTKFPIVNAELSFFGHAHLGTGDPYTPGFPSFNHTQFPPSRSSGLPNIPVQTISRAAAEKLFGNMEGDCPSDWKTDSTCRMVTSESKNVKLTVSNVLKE
# strict inequality: apical domain:HSA < 300 yields T, everything else yields F

Exercise: Find out if reported apical domain:HSA for SEQ ID NO 156 (designed binder, FN3 domain) MLPAPKNLVVSRVTEDSARLSWTAPDAAFDSFYIAYAEPRPDGEAIFLQVPGSERSYDLTGLKPGTEYSVLIHGVKGGLLSSPLAAVFTT is less than 300
Solution: T

Exercise: Find out if reported apical domain:HSA for SEQ ID NO 148 (designed binder, FN3 domain) MLPAPKNLVVSRVTEDSARLSWTAPDAAFDSFYIAYAEPRPDGEAIALHVPGSERSYDLTGLKPGTEYSVLIHGVKGGLLSSPLRAVFTT is less than 300
Solution: T

Exercise: Find out if reported apical domain:HSA for SEQ ID NO 138 (designed binder, FN3 domain) MLPTPKNLVVSRVTEDSARLSWTAPDAAFDSFYIAYAEPRPDGEAIQLRVPGSERSYDLTGLKPGTEYSVLIHGVKGGLLSSPLHASFTT is less than 300
Solution: F

Exercise: Find out if reported apical domain:HSA for SEQ ID NO 149 (designed binder, FN3 domain) MLPAPKNLVVSRVTEDSARLSWTAPDAAFDSFYIAYAEPRPDGEAIQLWVPGSERSYDLTGLKPGTEYSVLIHGVKGGLLSSPLSAIFTT is less than 300
Solution: F

Exercise: Find out if reported apical domain:HSA for SEQ ID NO 112 (designed binder, FN3 domain) MLPAPKNLVVSRVTEDSARLSWTAPDAAFDSFYIAYAEPRPDGEAILLLVPGSERSYDLTGLKPGTEYSVLIHGVKGGLLSSPLSAIFTT is less than 300
Solution: F

Exercise: Find out if reported apical domain:HSA for SEQ ID NO 158 (designed binder, FN3 domain) MLPAPKNLVVSRVTEDSARLSWTAPDAAFDSFYIAYAEPRPDGEAIILQVPGSERSYDLTGLKPGTEYSVLIHGVKGGLLSSPLSAVFTT is less than 300
Solution: F

Exercise: Find out if reported apical domain:HSA for SEQ ID NO 110 (designed binder, FN3 domain) MLPAPKNLVVSRVTEDSARLSWTAPDAAFDSFFIGYLEPQPPGEAIYLTVPGSERSYDLTGLKPGTEYNVTIQGVKGGFPSYPLDASFTT is less than 300
Solution: T

Exercise: Find out if reported apical domain:HSA for SEQ ID NO 178 (designed binder, FN3 domain) MLPAPKNLVVSRVTEDSARLSWTAPDAAFDSFYIAYAEPRPDGEAIQLQVPGSERSYDLTGLKPGTEYSVLIHGVKGGLLSSPLSAIVTT is less than 300
Solution: T
